Data origin, for the record: patent US8541344B2

Listed next: entries and their corresponding % Release of 1-MCP.
assay: Cyclopropene release measurement (headspace gas chromatography); type: physicochemical; conditions: deionized water #1, 5 ppm copper ion, metal-complexing agent 10 mM
Give the value in % but do not write % after it.

[[record]]
compound = "O=C(O)C(O)C(O)C(=O)O (stereo not shown) [Tartaric acid, tartaric acid]"
unit_spec = "%"
assay_result = 92

[[record]]
compound = "O=C(O)CN(CC(=O)O)CC(=O)O [nitrilotriacetic acid]"
unit_spec = "%"
assay_result = 95

[[record]]
compound = "O=C([O-])[O-].[Na+].[Na+] [sodium carbonate]"
unit_spec = "%"
assay_result = 71


Exercise: Please report the measured % Release of 1-MCP for O=P([O-])([O-])OP(=O)([O-])[O-].[Na+].[Na+].[Na+].[Na+] [tetrasodium pyrophosphate]
Key: 54

* * *

Listing of recorded % Release of 1-MCP by entry.
Assay: Cyclopropene release measurement (headspace gas chromatography)
Type: physicochemical
Details: deionized water #1, 5 ppm copper ion, metal-complexing agent 1 mM
Experimental: Cyclopropene Headspace Measurement Method: A composition containing water and cyclopropene was sealed in a bottle equipped with a septum in a manner that leaves a portion of the volume of the bottle filled with gas; a portion of the headspace was analyzed for cyclopropene at 1 hour after injection. The analysis method was gas chromatography using the following parameters: Cyclopropene Release Measurement The release of cyclopropene from a mixture of water and cyclopropene was measured as follows. […]
Give the value in % but do not write % after it.

Worked examples follow.
[[record]]
compound = "O=C(O)C(O)C(O)C(=O)O (stereo not shown)"
unit_spec = "%"
assay_result = 99

[[record]]
compound = "O=C([O-])[O-].[Na+].[Na+] [sodium carbonate]"
unit_spec = "%"
assay_result = 61

[[record]]
compound = "O=P([O-])([O-])OP(=O)([O-])[O-].[Na+].[Na+].[Na+].[Na+] [tetrasodium pyrophosphate]"
unit_spec = "%"
assay_result = 42


Let us examine a further case.
Exercise: State, in one line, measured % Release of 1-MCP of "O=C(O)CN(CC(=O)O)CC(=O)O"
Key: 97
